Data provenance is the kinase profiling compilation of Christmann-Franck et al. (2016).

Listed compounds paired with reported inhibition
System: PRKACA (mouse)
assay.setup: compound 10.0 µM; accession and sequence are those of the human protein

{"columns": ["compound", "inhibition"],
 "data": [
  ["O=C(c1ccc(Nc2nccc(-c3cc4ccccc4s3)n2)cc1)N1CCC(N2CCCC2)CC1", "12%"],
  ["COc1cc(CC2C(=O)OC[C@@H]2Cc2ccc(OC)c(OC)c2)ccc1O (stereo not given in full)", "0%"],
  ["CS(=O)c1ccc(-c2nc(-c3ccc(F)cc3)c(-c3ccncc3)[nH]2)cc1 (stereo not given)", "0%"],
  ["COc1cc2nccc(Oc3ccc(NC(=O)Nc4ccc(F)cc4F)c(F)c3)c2cc1OC", "16%"],
  ["NC(=O)c1ccc(-c2nc(-c3ccccn3)c(-c3ccc4c(c3)OCCO4)[nH]2)cc1", "0%"]
]}
